System: cocklebur
Test: Test C pre-/postemergence herbicide test
Format: in vivo, Xanthium strumarium
Settings: 125 g ai/ha; scale 0 (no effect) to 100 (complete control); visual, 12 to 14 days; preemergence
experimental readout: Plant response rating, Cocklebur
Please give the numeric answer without any surrounding text.

Below are worked cases with known answers.
{"structure string": "C#CCNC(=O)c1cccc(NC(=O)c2cc(C(C)(C)C)nn2CC)c1", "Plant response rating, Cocklebur": 0}
{"structure string": "CCn1nc(C2(C)CC2)cc1C(=O)Nc1cc(C(=O)N(C)C)ccc1F", "Plant response rating, Cocklebur": 40}
{"structure string": "CCn1nc(C(C)(C)C)cc1C(=O)Nc1cccc2c1CCN(C1CC1)C2=O", "Plant response rating, Cocklebur": 0}
{"structure string": "CCN(C)C(=O)c1cccc(NC(=O)c2cc(C(C)(C)C)nn2CC)c1", "Plant response rating, Cocklebur": 0}
{"structure string": "CCCN1CCc2c(NC(=O)c3cc(C(C)(C)C)nn3CC)cccc2C1=O", "Plant response rating, Cocklebur": 0}

Query block: Can you share its Plant response rating, Cocklebur? I mean this molecule: `C#CCn1nc(C(C)(C)C)cc1C(=O)Nc1cccc(C(=O)NCC)c1`
Result block: 10

Query block: Can you share its Plant response rating, Cocklebur? I mean this molecule: `C=CCNC(=O)c1cccc(NC(=O)c2sc(C(C)(C)C)nc2CC)c1`
Result block: 0

====

Plant response rating, Barnyardgrass: recorded values
Test system: barnyardgrass
Assay: Test B pre-/postemergence herbicide test
Assay type: in vivo, Echinochloa crus-galli
Conditions: 500 g ai/ha; visual rating, 0 = no effect, 100 = complete control; preemergence
Please give the numeric answer without any surrounding text.

Below are worked cases with known answers.
{"compound": "CCn1nc(C(C)(C)C)cc1C(=S)Nc1cc(C(=S)N(C)C)ccc1F [Compound 305]", "Plant response rating, Barnyardgrass": 90}
{"compound": "CCn1nc(C(C)(C)C)cc1C(=O)Nc1cc(OCCF)ccc1F [Compound 350]", "Plant response rating, Barnyardgrass": 0}

Query block: Can you share its Plant response rating, Barnyardgrass? I mean this compound: CCNC(=O)c1ccc(F)c(NC(=O)c2c3c(nn2CC)C(C)(C)CC3)c1 [Compound 353]
Result block: 90

Query block: Can you share its Plant response rating, Barnyardgrass? I mean this compound: CCOC(=O)c1ccc(F)c(NC(=O)C2CN(C(C)(C)C)N=C2CC)c1 (racemic) [Compound 335]
Result block: 60

Query block: Can you share its Plant response rating, Barnyardgrass? I mean this compound: CCC1=NN(C(C)(C)C)CC1C(=O)Nc1cc(C(=O)N(C)C)ccc1F (racemic) [Compound 343]
Result block: 100

Query block: Can you share its Plant response rating, Barnyardgrass? I mean this compound: CCn1nc(C(C)(C)C)c(F)c1C(=O)Nc1cccc(C(=O)N(C)C)n1 [Compound 274]
Result block: 100

====

System: pigweed
Assay: Test B pre-/postemergence herbicide test
Format: in vivo, Amaranthus retroflexus
Settings: 125 g ai/ha; 0 = no effect, 100 = complete control; preemergence
Pigweed plant response rating (0 to 100 scale): recorded values

{"structure string": "CCc1cn(C(C)(C)C)nc1C(=O)Nc1cc(C(=O)N(CC)CC)ccn1", "target": "pigweed", "endpoint value": 0}
{"structure string": "CCNC(=O)c1cccc(NC(=O)c2sc(C(C)(C)C)nc2CC)n1", "target": "pigweed", "endpoint value": 30}
{"structure string": "CCOC(=O)c1cccc(NC(=O)c2cc(C(C)(C)C)nn2C)n1", "target": "pigweed", "endpoint value": 100}

Query block: Can you share its Pigweed plant response rating (0 to 100 scale)? I mean this molecule: `CCn1nc(C(C)(C)C)cc1C(=O)Nc1cc(OC)ccc1OC`
Result block: 0

Query block: Can you share its Pigweed plant response rating (0 to 100 scale)? I mean this molecule: `CCNC(=O)c1cccc(NC(=O)c2sc(C(C)(C)C)nc2C)c1`
Result block: 90

Query block: Can you share its Pigweed plant response rating (0 to 100 scale)? I mean this molecule: `CCn1nc(C(C)(C)C)cc1C(=O)Nc1cc(C(=S)N(C)C)ccc1F`
Result block: 100

Query block: Can you share its Pigweed plant response rating (0 to 100 scale)? I mean this molecule: `CCNC(=O)c1cccc(NC(=O)c2cn(C(C)(C)C)nc2C)c1`
Result block: 100

Query block: Can you share its Pigweed plant response rating (0 to 100 scale)? I mean this molecule: `CCn1nc(C(C)(C)C)cc1C(=O)Nc1cncc(C(=O)N(C)C)c1`
Result block: 0

Query block: Can you share its Pigweed plant response rating (0 to 100 scale)? I mean this molecule: `C=CCNC(=O)c1cccc(NC(=O)c2sc(C(C)(C)C)nc2CC)c1`
Result block: 90

Query block: Can you share its Pigweed plant response rating (0 to 100 scale)? I mean this molecule: `CCc1nn(C(C)(C)C)cc1C(=O)Nc1ccc(F)c(C(=O)N(CC)CC)c1`
Result block: 0

Query block: Can you share its Pigweed plant response rating (0 to 100 scale)? I mean this molecule: `CCN(CC)C(=O)c1cccc(NC(=O)c2nn(C(C)(C)C)cc2C(F)(F)F)c1`
Result block: 0

Query block: Can you share its Pigweed plant response rating (0 to 100 scale)? I mean this molecule: `CCn1nc(C(C)(C)C)cc1C(=S)Nc1cc(C(=S)N(C)C)ccc1F`
Result block: 100

Query block: Can you share its Pigweed plant response rating (0 to 100 scale)? I mean this molecule: `CCNC(=O)c1cccc(NC(=O)c2cc(C3(C)CC3)nn2CC)c1`
Result block: 100

====

Test system: morningglory
Assay: Test B pre-/postemergence herbicide test
Type: in vivo, Ipomoea coccinea
Conditions: 125 g ai/ha; 0 = no effect, 100 = complete control; preemergence
Morningglory plant response rating (0 to 100 scale): recorded values
Please give the numeric answer without any surrounding text.

Below are worked cases with known answers.
{"structure string": "CCc1nn(C(C)(C)C)cc1C(=O)Nc1cc(C(=O)N(C)C)ccn1", "endpoint value": 40}
{"structure string": "CCn1nc(C(C)(C)C)cc1C(=S)Nc1cc(C(=S)N(C)C)ccc1F", "endpoint value": 0}
{"structure string": "CCN(C)C(=O)c1cncc(NC(=O)c2cc(C(C)(C)C)nn2CC)c1", "endpoint value": 0}

We next turn to a different compound, shown below.
Query block: Can you share its Morningglory plant response rating (0 to 100 scale)? I mean this compound: `CCNC(=O)c1cccc(NC(=O)c2cc(C3(C)CC3)nn2CC)c1`
Result block: 10

====

Tested on: cocklebur
Assay: Test B pre-/postemergence herbicide test
Type: in vivo, Xanthium strumarium
Conditions: postemergence, 125 g ai/ha; visual rating, scale 0 (no effect) to 100 (complete control)
experimental readout: Cocklebur plant response rating

Below are worked cases with known answers.
{"structure string": "CCn1nc(C(C)(C)C)cc1C(=O)Nc1cccc(C(=O)OCC(F)(F)F)c1", "Cocklebur plant response rating": 0}
{"structure string": "CCCCNS(=O)(=O)c1cccc(NC(=O)c2cc(C(C)(C)C)nn2C)c1", "Cocklebur plant response rating": 0}
{"structure string": "CCN(C)C(=O)c1cncc(NC(=O)c2cc(C(C)(C)C)nn2CC)c1", "Cocklebur plant response rating": 0}
{"structure string": "CCc1nn(C(C)(C)C)cc1C(=O)Nc1ccc(F)c(C(=O)N(CC)CC)c1", "Cocklebur plant response rating": 0}
{"structure string": "CCNC(=O)c1cccc(NC(=O)c2sc(C(C)(C)C)nc2C)c1", "Cocklebur plant response rating": 60}
{"structure string": "CCN(CC)C(=O)c1cccc(NC(=O)c2nn(C(C)(C)C)cc2C(F)(F)F)c1", "Cocklebur plant response rating": 0}
{"structure string": "C=CCN(C)C(=O)c1cccc(NC(=O)c2cc(C(C)(C)C)nn2CC)c1", "Cocklebur plant response rating": 10}
{"structure string": "CCOC(=O)c1cc(NC(=O)c2cc(C(C)(C)C)nn2CC)ccc1C", "Cocklebur plant response rating": 0}

Query block: Can you share its Cocklebur plant response rating? I mean this compound: `CC(C)NS(=O)(=O)c1cccc(NC(=O)c2cc(C(C)(C)C)nn2C)c1`
Result block: 0

Query block: Can you share its Cocklebur plant response rating? I mean this compound: `CCc1nc(C(C)(C)C)sc1C(=O)Nc1cccc(C(=O)NCC(C)C)c1`
Result block: 30

Query block: Can you share its Cocklebur plant response rating? I mean this compound: `CCCN1CCc2c(NC(=O)c3cc(C(C)(C)C)nn3CC)cccc2C1=O`
Result block: 60

Query block: Can you share its Cocklebur plant response rating? I mean this compound: `CCCCOC(=O)c1cccc(NC(=O)c2cc(C(C)(C)C)nn2CC)c1`
Result block: 20

Query block: Can you share its Cocklebur plant response rating? I mean this compound: `CCNC(=O)c1cc(NC(=O)c2cc(C(C)(C)C)nn2CC)ccc1C`
Result block: 10

Query block: Can you share its Cocklebur plant response rating? I mean this compound: `CC(=NO)c1cccc(NC(=O)c2cc(C(C)(C)C)nn2CCF)c1`
Result block: 80

Query block: Can you share its Cocklebur plant response rating? I mean this compound: `CCn1nc(C(C)(C)C)cc1C(=O)Nc1cncc(C(=O)N(C)C)c1`
Result block: 20

Query block: Can you share its Cocklebur plant response rating? I mean this compound: `CCOC(=O)c1cc(NC(=O)c2cc(C(C)(C)C)nn2CC)ccc1OC`
Result block: 90

Query block: Can you share its Cocklebur plant response rating? I mean this compound: `CCc1nc(C(C)(C)C)sc1C(=O)Nc1cccc(C(=O)NCC(F)(F)F)c1`
Result block: 20

Query block: Can you share its Cocklebur plant response rating? I mean this compound: `CCNC(=O)c1cccc(NC(=O)c2cn(C(C)(C)C)nc2CC)c1`
Result block: 20

Just for reference, patent US20060069132A1 is where these values come from.
